Hi there, I'd appreciate the recorded Emax for every entry that follows.
# system: h5-HT2A receptor (Homo sapiens)
# Construct: expressed in transfected cells; host or cells: CHO cells
# Sequence (P28223 whole entry): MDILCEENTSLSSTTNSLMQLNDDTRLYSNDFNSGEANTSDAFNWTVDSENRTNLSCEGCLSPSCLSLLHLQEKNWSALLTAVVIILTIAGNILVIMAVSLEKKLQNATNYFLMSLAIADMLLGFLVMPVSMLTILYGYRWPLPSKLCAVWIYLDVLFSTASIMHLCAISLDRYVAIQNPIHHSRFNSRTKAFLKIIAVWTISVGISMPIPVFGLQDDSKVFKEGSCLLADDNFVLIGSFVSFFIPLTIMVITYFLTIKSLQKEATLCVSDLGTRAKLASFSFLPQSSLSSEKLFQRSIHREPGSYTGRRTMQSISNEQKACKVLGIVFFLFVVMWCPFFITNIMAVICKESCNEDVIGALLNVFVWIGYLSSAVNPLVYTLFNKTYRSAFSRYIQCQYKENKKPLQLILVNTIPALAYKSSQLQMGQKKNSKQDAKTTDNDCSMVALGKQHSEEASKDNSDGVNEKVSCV
# assay-notes: Functional activity, FLIPR calcium assay, CHO cells expressing h5-HT2A
# Type: cell-based
# reported-conditions: CHO, maximum fluorescent signal relative to 10 μM 5-HT (defined as 100%); read-out: h5-HT2A Relative Efficacy (%)
Where a name gives a salt, the structure may show the parent alone.
Answers are plain numbers, in %.

Recorded results for 6 compounds are shown here.
[[record]]
compound = "C[C@H](N)CN1CCc2ccc3c(c21)CCC3"
test_readout = "Emax"
endpoint_value = 0

[[record]]
compound = "C[C@H](N)CN1CCc2ccc3ccccc3c21"
test_readout = "Emax"
endpoint_value = 51

[[record]]
compound = "CCC1CN(CC(C)N)c2c1ccc1c2CCO1 (single isomer, unassigned)"
test_readout = "Emax"
endpoint_value = 22

[[record]]
compound = "C[C@H](N)CN1CCc2ccc3c(c21)CCS3 [Compound 5, fumarate]"
test_readout = "Emax"
endpoint_value = 77

[[record]]
compound = "C[C@H](N)CN1CCc2ccc3c(c21)OCCO3 [Compound 6, fumarate]"
test_readout = "Emax"
endpoint_value = 71

[[record]]
compound = "C[C@H](N)CN1CCc2ccc3c(c21)CCCC3"
test_readout = "Emax"
endpoint_value = 14


Answer for every listed entry: what is its Emax? The entries follow.
1. C[C@H](N)CN1CCc2ccc3c(c21)CCCO3 [Compound 4, fumarate]
2. C[C@H](N)CN1CCc2ccc3c(c21)CCO3 [Compound 3, fumarate]

[66, 81]

----------
Where a name gives a salt, the structure may show the parent alone.
test-readout: melting point

Recorded results for 5 compounds are shown here.
[[record]]
compound = "C[C@H](N)CN1CCc2ccc3c(c21)CCCO3 (as salt: fumarate)"
endpoint_value = "168 to 169 °C"

[[record]]
compound = "C[C@H](N)CN1CCc2ccc3c(c21)CCCC3 (as salt: fumarate)"
endpoint_value = "178 to 182 °C"

[[record]]
compound = "C[C@H](N)CN1CCc2ccc3c(c21)CCO3 (as salt: fumarate)"
endpoint_value = "215.5 to 217 °C (dec.)"

[[record]]
compound = "C[C@H](N)CN1CCc2ccc3c(c21)CCC3 (as salt: fumarate)"
endpoint_value = "182 °C (dec.)"

[[record]]
compound = "C[C@H](N)CN1CCc2ccc3c(c21)OCCO3 (as salt: fumarate)"
endpoint_value = "173 to 174 °C (dec.)"


# next compound below
Item under review: C[C@H](N)CN1CCc2ccc3c(c21)CCS3 (as salt: fumarate) . Reported melting point?
188 to 189.5 °C (dec.)

----------
# system: h5-HT2C receptor (Homo sapiens, UniProt P28335)
# Construct: expressed in transfected cells; host or cells: CHO cells
# Sequence (P28335 33-458): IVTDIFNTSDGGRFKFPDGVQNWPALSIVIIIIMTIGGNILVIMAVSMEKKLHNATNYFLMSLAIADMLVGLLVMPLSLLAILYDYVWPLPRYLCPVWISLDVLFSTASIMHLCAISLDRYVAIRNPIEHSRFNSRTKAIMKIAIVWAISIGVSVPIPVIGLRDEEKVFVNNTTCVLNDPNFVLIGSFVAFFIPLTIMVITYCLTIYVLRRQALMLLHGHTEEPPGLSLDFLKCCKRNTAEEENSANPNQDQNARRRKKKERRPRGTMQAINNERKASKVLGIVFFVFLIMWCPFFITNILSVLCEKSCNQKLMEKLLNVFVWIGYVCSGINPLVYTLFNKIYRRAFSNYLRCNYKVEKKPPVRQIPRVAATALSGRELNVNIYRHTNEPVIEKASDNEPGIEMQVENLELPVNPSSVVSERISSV
# assay-notes: Functional activity, FLIPR calcium assay, CHO cells expressing h5-HT2C
# Format: cell-based
# reported-conditions: CHO, maximum fluorescent signal relative to 10 μM 5-HT (defined as 100%); read-out: h5-HT2C Relative Efficacy (%)
Counter-ions that a name gives are not always drawn.
test-readout: Emax (%)
Numbers only, in %.

[[record]]
compound = "C[C@H](N)CN1CCc2ccc3c(c21)CCS3 [Compound 5, fumarate]"
system = "h5-HT2C receptor (Homo sapiens, UniProt P28335)"
test_readout = "Emax"
endpoint_value = 86

[[record]]
compound = "C[C@H](N)CN1CCc2ccc3c(c21)CCC3"
system = "h5-HT2C receptor (Homo sapiens, UniProt P28335)"
test_readout = "Emax"
endpoint_value = 69

[[record]]
compound = "C[C@H](N)CN1CCc2ccc3c(c21)CCCC3"
system = "h5-HT2C receptor (Homo sapiens, UniProt P28335)"
test_readout = "Emax"
endpoint_value = 68

[[record]]
compound = "C[C@@H](N)CN1CCc2ccc3ccccc3c21"
system = "h5-HT2C receptor (Homo sapiens, UniProt P28335)"
test_readout = "Emax"
endpoint_value = 44

[[record]]
compound = "CCC1CN(CC(C)N)c2c1ccc1c2CCO1 (single isomer, unassigned)"
system = "h5-HT2C receptor (Homo sapiens, UniProt P28335)"
test_readout = "Emax"
endpoint_value = 74


Answer for every listed entry: what is its Emax? The entries follow.
1. C[C@H](N)CN1CCc2ccc3c(c21)OCCO3 [Compound 6, fumarate]
2. C[C@H](N)CN1CCc2ccc3ccccc3c21

[90, 79]

Answer for every listed entry: what is its Emax? The entries follow.
1. C[C@H](N)CN1CCc2ccc3c(c21)CCCO3 [Compound 4, fumarate]
2. C[C@H](N)CN1CCc2ccc3c(c21)CCO3 [Compound 3, fumarate]

1: 89; 2: 94

These measurements were taken from patent US6962939B1.
